Assay: In-vivo testing: plasma pharmacokinetics after single oral gavage of suspension in rats
Conditions: Sprague-Dawley, rat, 10 mg/kg
Where a name gives a salt, the structure may show the parent alone.

{"Compound": "Cc1cn(-c2cc(NC(=O)c3ccc(C)c(Nc4nccc(-c5cccnc5)n4)c3)cc(C(F)(F)F)c2)cn1 [Nilotinib HCl monohydrate]", "Endpoint unit": "ng·h/mL", "AUC(0-t)": 2910}

====

Test: In-vivo testing: plasma pharmacokinetics after single oral gavage of suspension in rats
Details: Sprague-Dawley, rat, 10 mg/kg
Counter-ions that a name gives are not always drawn.

{"Compound": "Cc1cn(-c2cc(NC(=O)c3ccc(C)c(Nc4nccc(-c5cccnc5)n4)c3)cc(C(F)(F)F)c2)cn1 [Nilotinib HCl monohydrate]", "Tmax / h": 2}
